Numbers sourced from patent US20220323406A1.

- System: ENR+CD organoids
- ASSAY_TEXT: Primary screen: ATP (CellTiter-Glo 3D, CTG) cell number/viability, 2.5-D 384-well ENR+CD organoids
- DETAILS: primary screen, dose 2.00 uM
Exercise: state measured Dose.FC.CTG for each of the molecules provided.
Give your result as the value with the unit written after it.

Problem: Which measured Dose.FC.CTG value corresponds to `CO[C@H]1C[C@@H]2CC[C@@H](C)[C@@](O)(O2)C(=O)C(=O)N2CCCC[C@H]2C(=O)O[C@H]([C@H](C)C[C@@H]2CC[C@@H](OC(=O)C(C)(CO)CO)[C@H](OC)C2)CC(=O)[C@H](C)/C=C(\C)[C@@H](O)[C@@H](OC)C(=O)[C@H](C)C[C@H](C)/C=C/C=C/C=C/1C` ?
Result: 0.578 log2 fold change

Problem: Which measured Dose.FC.CTG value corresponds to `CNCc1ccc(-c2cc(-c3nc(-c4ccc(S(=O)(=O)C(C)C)cc4)cnc3N)on2)cc1` ?
Result: −0.717 log2 fold change

Problem: Which measured Dose.FC.CTG value corresponds to `OC[C@H]1O[C@@H](c2ccc(Cl)c(Cc3ccc(O[C@H]4CCOC4)cc3)c2)[C@H](O)[C@@H](O)[C@@H]1O` ?
Result: −0.192 log2 fold change

Problem: Which measured Dose.FC.CTG value corresponds to `CN[C@@H](C)C(=O)N[C@H](C(=O)N1CCC[C@H]1C(=O)Nc1snnc1-c1ccccc1)C1CCCCC1` ?
Result: 0.003 log2 fold change

Problem: Which measured Dose.FC.CTG value corresponds to CC(C)n1c(/C=C/C(O)CC(O)CC(=O)O)c(-c2ccc(F)cc2)c2ccccc21 (stereo not drawn) [Fluvastatin Sodium] ?
Result: −1.111 log2 fold change

Problem: Which measured Dose.FC.CTG value corresponds to CCOc1ccc(Cc2cc([C@@H]3O[C@H](CO)[C@@H](O)[C@H](O)[C@H]3O)ccc2Cl)cc1 [Dapagliflozin, reference compound] ?
Result: 0.293 log2 fold change

* * *

- System: ENR+CD organoids
- ASSAY_TEXT: Primary screen: ATP (CellTiter-Glo 3D, CTG) cell number/viability, 2.5-D 384-well ENR+CD organoids;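 note: compounds given at plating and again on day 3 over a 6-day differentiation from ENR+CV stem-cell-enriched precursors, ATP measured on day 6, plate median as control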
- DETAILS: primary screen, dose 2.00 uM
The label is true (1) for Z.CTG (standard z score) below -0.3 and false (0) for Z.CTG (standard z score) equal to or exceeding -0.3.

Problem: Is the reported Z.CTG (standard z score) for `c1cc(-c2cnn3cc(-c4ccc(N5CCNCC5)cc4)cnc23)c2cccnc2c1` strictly below -0.3?
Result: true (1)

Problem: Is the reported Z.CTG (standard z score) for `COC1CCN(C(=O)c2cc(Cc3n[nH]c(=O)c4ccccc34)ccc2F)CC1` strictly below -0.3?
Result: true (1)

Problem: Is the reported Z.CTG (standard z score) for `COc1cc(-n2c(=S)[nH]c3ccccc3c2=O)c(Cl)cc1Cl` strictly below -0.3?
Result: false (0)

Problem: Is the reported Z.CTG (standard z score) for `CCN1CCN(c2ccc(Nc3cc(N(C)C(=O)Nc4c(Cl)c(OC)cc(OC)c4Cl)ncn3)cc2)CC1` strictly below -0.3?
Result: true (1)

Problem: Is the reported Z.CTG (standard z score) for C[C@H]1COC2(CCN(c3nc(=O)c4cc(C(F)(F)F)cc([N+](=O)[O-])c4s3)CC2)O1 (racemic) [BTZ043 Racemate] strictly below -0.3?
Result: false (0)

Problem: Is the reported Z.CTG (standard z score) for `C[C@@H]1COCCN1c1cc(C2(S(C)(=O)=O)CC2)nc(-c2cccc3[nH]ccc23)n1` strictly below -0.3?
Result: true (1)

Problem: Is the reported Z.CTG (standard z score) for CCc1cc(Nc2nccc(-c3c(-c4ccc(OC)c(C(=O)Nc5c(F)cccc5F)c4)nc4ccccn34)n2)c(OC)cc1N1CCC(N2CCN(S(C)(=O)=O)CC2)CC1 [GSK1904529A] strictly below -0.3?
Result: true (1)

Problem: Is the reported Z.CTG (standard z score) for `O=C(O)c1ccc(N2C(=O)/C(=C\c3ccc(-c4ccc([N+](=O)[O-])cc4)o3)C=C2c2ccccc2)cc1` strictly below -0.3?
Result: false (0)

Problem: Is the reported Z.CTG (standard z score) for `COc1ccc2c(c1)c(CC(=O)N1CCOCC1)c(C)n2C(=O)c1ccc(Cl)cc1` strictly below -0.3?
Result: false (0)

Problem: Is the reported Z.CTG (standard z score) for `C=CC(=O)N1CCC[C@@H](n2nc(-c3ccc(Oc4ccccc4)cc3)c3c(N)ncnc32)C1` strictly below -0.3?
Result: true (1)

* * *

- Tested on: ENR+CD organoids (ISC to Paneth cell differentiation)
- ASSAY_TEXT: Primary screen: basal (non-stimulated) lysozyme secretion LYZ.NS, 2.5-D 384-well ENR+CD organoid differentiation
- Assay type: cell-based, mouse
- DETAILS: primary screen, dose 10.00 uM
- From the text: High-throughput screening.
Where a name gives a salt, the structure may show the parent alone.
READOUT_LABEL: Z.LYZ.NS (standard z score)
The response must contain the number and no unit.

Problem: Which measured Z.LYZ.NS (standard z score) value corresponds to CCC(COC(=O)c1cc(OC)c(OC)c(OC)c1)(c1ccccc1)N(C)C (centres unmarked) [Trimebutine] ?
Result: −1.863

Problem: Which measured Z.LYZ.NS (standard z score) value corresponds to C[C@@H](Oc1cc(-n2cnc3ccc(CN4CCN(C)CC4)cc32)sc1C(N)=O)c1ccccc1C(F)(F)F [GSK461364] ?
Result: −2.498

Problem: Which measured Z.LYZ.NS (standard z score) value corresponds to O=c1ncn2nc(Sc3ccc(F)cc3F)ccc2c1-c1c(Cl)cccc1Cl [VX-745] ?
Result: −0.049

Problem: Which measured Z.LYZ.NS (standard z score) value corresponds to Cl.O=C(O)Cc1cccc(OCCCN(Cc2cccc(C(F)(F)F)c2Cl)CC(c2ccccc2)c2ccccc2)c1 [GW3965 HCl] ?
Result: −0.080

Problem: Which measured Z.LYZ.NS (standard z score) value corresponds to CC(C)c1ccc(NC(=O)Cn2cnc3c2c(=O)n(C)c(=O)n3C)cc1 [HC-030031] ?
Result: −0.411

Problem: Which measured Z.LYZ.NS (standard z score) value corresponds to COc1ccc2cccc(CCNC(C)=O)c2c1 [Agomelatine] ?
Result: −0.285

Problem: Which measured Z.LYZ.NS (standard z score) value corresponds to CCc1c2c(nc3ccc(OC(=O)N4CCC(N5CCCCC5)CC4)cc13)-c1cc3c(c(=O)n1C2)COC(=O)[C@]3(O)CC [Irinotecan HCl Trihydrate] ?
Result: −2.368

Problem: Which measured Z.LYZ.NS (standard z score) value corresponds to Cc1cc(-c2ccc(CC(=O)Nc3ccc(-c4cccnc4)cc3)cc2)ccn1 [Wnt-C59 (C59)] ?
Result: −1.666

* * *

- System: ENR+CD organoids (ISC to Paneth cell differentiation)
- ASSAY_TEXT: Primary screen: basal (non-stimulated) lysozyme secretion LYZ.NS, 2.5-D 384-well ENR+CD organoid differentiation
- Assay type: cell-based, mouse
- DETAILS: primary screen, dose 2.00 uM
Exercise: state measured Dose.FC.LYZ.NS for each of the compounds provided.
Numeric answer only, unit log2 fold change assumed.

Problem: Which measured Dose.FC.LYZ.NS value corresponds to `CCCCCCCCCCCC1=C(O)C(=O)C=C(O)C1=O` ?
Result: −0.055

Problem: Which measured Dose.FC.LYZ.NS value corresponds to `CC(C)(C)c1cc(/C=C(\C#N)C(N)=S)cc(C(C)(C)C)c1O` ?
Result: −0.080

Problem: Which measured Dose.FC.LYZ.NS value corresponds to CC(C)N(CC[C@H](c1ccccc1)c1cc(CO)ccc1O)C(C)C [4CE°8C] ?
Result: 0.016

Problem: Which measured Dose.FC.LYZ.NS value corresponds to `COCCOc1ccc2c(c1)ncn2-c1ccc2cccc(N3CCC(N)CC3)c2n1` ?
Result: 0.102

Problem: Which measured Dose.FC.LYZ.NS value corresponds to `O=C(O)c1cccc(-c2noc(-c3ccccc3F)n2)c1` ?
Result: 0.131

Problem: Which measured Dose.FC.LYZ.NS value corresponds to `C=CCNC1=C2C[C@@H](C)C[C@H](OC)[C@H](O)[C@@H](C)/C=C(\C)[C@H](OC(N)=O)[C@@H](OC)/C=C\C=C(/C)C(=O)NC(=CC1=O)C2=O` ?
Result: −0.142

Problem: Which measured Dose.FC.LYZ.NS value corresponds to `CCC(CC)CC1(C(=O)Nc2ccccc2SC(=O)C(C)C)CCCCC1` ?
Result: −0.034

Problem: Which measured Dose.FC.LYZ.NS value corresponds to Cl.N[C@@H]1C[C@H]1c1ccccc1 (racemic) [Tranylcypromine (2-PCPA) HCl] ?
Result: 0.049

* * *

- System: ENR+CD organoids (ISC to Paneth cell differentiation)
- ASSAY_TEXT: Primary screen: CCh-stimulated lysozyme secretion LYZ.S, 2.5-D 384-well ENR+CD organoid differentiation
- Type: cell-based, mouse
- DETAILS: primary screen, dose 10.00 uM
Structures can show the parent of a compound that is named as a salt.
READOUT_LABEL: Dose.FC.LYZ.S (log2 fold change)
Numeric answer only, unit log2 fold change assumed.

Problem: API: value(readout=Dose.FC.LYZ.S, system=ENR+CD organoids (ISC to Paneth cell differentiation)) for record `CCCS(=O)(=O)Nc1ccc(F)c(C(=O)c2c[nH]c3ncc(-c4ccc(Cl)cc4)cc23)c1F`
Result: 0.022

Problem: API: value(readout=Dose.FC.LYZ.S, system=ENR+CD organoids (ISC to Paneth cell differentiation)) for record CN1CCC[C@@H]1CCO[C@](C)(c1ccccc1)c1ccc(Cl)cc1 [Clemastine Fumarate]
Result: 0.001

Problem: API: value(readout=Dose.FC.LYZ.S, system=ENR+CD organoids (ISC to Paneth cell differentiation)) for record `N#Cc1c(O)c2c(-c3ccc(-c4ccccc4O)cc3)csc2[nH]c1=O`
Result: 0.019

Problem: API: value(readout=Dose.FC.LYZ.S, system=ENR+CD organoids (ISC to Paneth cell differentiation)) for record `O=C(c1ccc(F)cc1)N1CCC[C@H](c2nc(-c3ccc(F)cc3)no2)C1`
Result: −0.070
